Test system: NCI-H226 lung
Test: NCI tumour cell line growth inhibition, 48 h
property: TGI

- O=C(O)c1ccc(Nc2c3ccccc3nc3ccccc23)cc1: > 100 µM
- c1nc(OCC2CCCCC2)c2[nH]cnc2n1: > 100 µM
- O=C(NC(Cc1c[nH]c2ccccc12)C(=O)Nc1ccc(Br)cc1)OCc1ccccc1 (stereo unspecified): 31.4 µM
- COC(=O)c1cc2c(s1)C(=O)c1ccccc1-2: > 100 µM
- COc1cc(C(Cc2ccccc2)NC(C)=O)oc(=O)c1 (stereo unspecified): > 100 µM
- N#Cc1c(NN)n(C2OC(CO)C(O)C2O)c2ncnc(N)c12 (stereo unspecified): 2.91 µM
